Measured pIC50 of individual entries
- TARGET_OR_SYSTEM: NLRP3 (Homo sapiens, UniProt Q96P20)
- Sequence (Q96P20 whole entry): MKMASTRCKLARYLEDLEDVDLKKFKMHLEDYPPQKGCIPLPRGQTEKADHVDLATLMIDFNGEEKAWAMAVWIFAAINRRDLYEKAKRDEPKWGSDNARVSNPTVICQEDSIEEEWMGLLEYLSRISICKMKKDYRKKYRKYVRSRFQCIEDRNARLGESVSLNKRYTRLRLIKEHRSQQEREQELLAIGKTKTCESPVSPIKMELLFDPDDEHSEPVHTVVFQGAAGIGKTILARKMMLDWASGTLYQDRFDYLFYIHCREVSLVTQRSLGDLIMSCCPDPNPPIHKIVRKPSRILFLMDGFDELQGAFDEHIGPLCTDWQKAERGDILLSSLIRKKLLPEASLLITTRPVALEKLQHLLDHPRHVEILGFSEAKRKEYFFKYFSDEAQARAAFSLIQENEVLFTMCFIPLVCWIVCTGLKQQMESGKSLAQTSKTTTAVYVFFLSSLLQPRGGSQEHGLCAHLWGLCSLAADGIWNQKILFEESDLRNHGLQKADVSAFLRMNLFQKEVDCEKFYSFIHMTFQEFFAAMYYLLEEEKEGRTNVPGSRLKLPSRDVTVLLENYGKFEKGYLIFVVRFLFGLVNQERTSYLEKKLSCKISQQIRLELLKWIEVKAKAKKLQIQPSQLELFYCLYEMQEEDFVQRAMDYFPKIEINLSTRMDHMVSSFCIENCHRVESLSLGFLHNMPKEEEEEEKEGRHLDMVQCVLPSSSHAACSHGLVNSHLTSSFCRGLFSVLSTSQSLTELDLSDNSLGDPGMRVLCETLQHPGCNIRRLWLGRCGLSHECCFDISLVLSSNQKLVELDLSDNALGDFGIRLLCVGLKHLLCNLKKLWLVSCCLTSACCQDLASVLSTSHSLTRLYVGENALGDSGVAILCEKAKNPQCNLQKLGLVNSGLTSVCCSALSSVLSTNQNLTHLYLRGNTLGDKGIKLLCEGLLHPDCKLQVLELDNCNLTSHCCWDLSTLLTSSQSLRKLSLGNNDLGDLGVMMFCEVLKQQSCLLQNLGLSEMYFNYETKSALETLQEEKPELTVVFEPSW
- MEASUREMENT_NOTES: THP-1 cells pyroptosis assay
- Format: cell-based
- Design: Seed THP-1 cells (25,000 cells/well) containing 1.0 μg/ml LPS; host or cells: THP-1 cells, LPS-primed, nigericin-stimulated
- REPORTED_CONDITIONS: 1.0 μg/ml LPS, compound 3 hrs, nigericin 5 μM 1 hr, resazurin readout
pIC50: −log10 of the molar value.

O=S1(=O)c2nnc([nH]2)Nc2c(ccc3c2CCC3)-c2ccnc(c2)OCCCN2CCC3(C2)CN1C3 | ≥ 7.00
CC(C)c1cc(F)cc2c1Nc1nnc([nH]1)S(=O)(=O)N1CC3(CCN(CCCOc4cc-2ccn4)C3)C1 | ≥ 7.00
O=S1(=O)c2nnc([nH]2)Nc2c(ccc3c2CCC3)-c2ccnc(c2)OCCCN2CCC23CCN1CC3 | ≥ 7.00

I have this molecule here, CC1(C)COc2cc(ccn2)-c2ccc3c(c2Nc2nnc([nH]2)S(=O)(=O)c2ccn1n2)CCC3 , and I need its recorded pIC50.
≥ 5.30

Looking for the measured pIC50 of CN(C)CC12CCCCOc3cc(ccn3)-c3ccc4c(c3Nc3nnc([nH]3)S(=O)(=O)N(CC1)C2)CCC4 (stereo not drawn) , can you help?
≥ 6.00

For the molecule shown here, CC1(C)COc2cc(ccn2)-c2ccc3c(c2Nc2nnc([nH]2)S(=O)(=O)c2cccc1c2)CCC3 , give the reported pIC50.
≥ 5.30

Which pIC50 is reported for this molecule? O=S1(=O)c2nnc([nH]2)Nc2c(ccc3c2CCC3)-c2ccnc(c2)OCCN2CCC3(C2)CN1C3
≥ 7.00

# query: pIC50 of entry CN1CCCOc2cc(ccn2)-c2ccc3c(c2Nc2nnc([nH]2)S(=O)(=O)N2CC[C@H]1C2)CCC3
≥ 6.30

Fill in the blank: the reported pIC50 of CN1CCCCOc2cc(ccn2)-c2ccc3c(c2Nc2nnc([nH]2)S(=O)(=O)N2CCC1CC2)CCC3 is ____.
≥ 6.00

====

- TARGET_OR_SYSTEM: NLRP3 (Homo sapiens)
- MEASUREMENT_NOTES: Human whole blood IL-1β release assay
- Format: cell-based
- Set-up: Human whole blood in Li-heparin tubes was obtained from healthy donors; from tissue; host or cells: human whole blood from healthy volunteer donors, LPS-primed, nigericin-stimulated
- REPORTED_CONDITIONS: 1 μg/ml LPS, compound 3 hrs, nigericin 10 μM 1 hr, IL-1β in supernatant (AlphaLisa), read-out: HWB IC50
READOUT_TYPE: IC50

Would you please look over these solved cases?
O=S1(=O)c2nnc([nH]2)Nc2c(ccc3c2CCC3)-c2ccnc(c2)OCCN2CCCC23CCN1CC3 | ≤ 500 nM
CN1CCCOc2cc(ccn2)-c2ccc3c(c2Nc2nnc([nH]2)S(=O)(=O)N2CCC1CC2)CCC3 | ≤ 5000 nM
CN1CCOc2cc(ccn2)-c2ccc3c(c2Nc2nnc([nH]2)S(=O)(=O)N2CC(C1)C2)CCC3 | ≤ 500 nM
O=S1(=O)c2nnc([nH]2)Nc2c(ccc3c2CCC3)-c2ccnc(c2)OCCCN2CCC3(C2)CN1C3 | ≤ 100 nM
CC1(C)COc2cc(ccn2)-c2ccc3c(c2Nc2nnc([nH]2)S(=O)(=O)N2CC4(CCN1C4)C2)CCC3 | ≤ 500 nM
CN1CCOc2cc(ccn2)-c2ccc3c(c2Nc2nnc([nH]2)S(=O)(=O)N2CCC1CC2)CCC3 | ≤ 500 nM

Report IC50 for CN1CCOc2cc(ccn2)-c2ccc3c(c2Nc2nnc([nH]2)S(=O)(=O)N2CC[C@@H](C1)C2)CCC3 tested on NLRP3 (Homo sapiens).
≤ 500 nM

// lookup IC50 | system=NLRP3 (Homo sapiens) | key= Cc1cc2c(c3c1-c1ccnc(c1)OCCCN1CCC4(C1)CN(C4)S(=O)(=O)c1nnc([nH]1)N3)CCC2
≤ 500 nM

Identify the measured IC50 of O=S1(=O)c2nnc([nH]2)Nc2c(ccc3c2CCC3)-c2ccnc(c2)OCCN2CCC3(C2)CN1C3 for NLRP3 (Homo sapiens).
≤ 500 nM

For the record CC1(C)COc2cc(ccn2)-c2ccc3c(c2Nc2nnc([nH]2)S(=O)(=O)c2cccc1c2)CCC3 , what value of IC50 is listed for NLRP3 (Homo sapiens)?
≤ 10000 nM
